- ASSAYED TARGET: EZH2 (Homo sapiens, UniProt Q15910)
- Sequence (Q15910 whole entry): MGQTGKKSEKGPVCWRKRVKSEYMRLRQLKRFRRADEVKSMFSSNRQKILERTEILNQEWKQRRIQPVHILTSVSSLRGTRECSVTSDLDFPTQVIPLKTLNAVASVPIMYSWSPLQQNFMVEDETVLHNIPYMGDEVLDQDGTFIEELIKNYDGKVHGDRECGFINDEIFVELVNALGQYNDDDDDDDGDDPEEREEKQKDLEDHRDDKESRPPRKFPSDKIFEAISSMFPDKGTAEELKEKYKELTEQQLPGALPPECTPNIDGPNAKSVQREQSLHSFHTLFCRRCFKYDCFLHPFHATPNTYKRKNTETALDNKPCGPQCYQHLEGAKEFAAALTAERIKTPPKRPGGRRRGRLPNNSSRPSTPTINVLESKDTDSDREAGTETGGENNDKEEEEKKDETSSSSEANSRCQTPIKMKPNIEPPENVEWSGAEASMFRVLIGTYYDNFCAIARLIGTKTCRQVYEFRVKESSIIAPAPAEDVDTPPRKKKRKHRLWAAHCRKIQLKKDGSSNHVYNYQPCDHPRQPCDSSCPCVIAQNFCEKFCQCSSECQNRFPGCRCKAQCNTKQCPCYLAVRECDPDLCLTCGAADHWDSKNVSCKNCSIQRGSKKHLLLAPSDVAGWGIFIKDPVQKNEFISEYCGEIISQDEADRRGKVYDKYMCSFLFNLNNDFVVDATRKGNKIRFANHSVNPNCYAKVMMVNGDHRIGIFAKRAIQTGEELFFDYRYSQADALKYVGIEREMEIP
- Sequence (O75530 whole entry partner): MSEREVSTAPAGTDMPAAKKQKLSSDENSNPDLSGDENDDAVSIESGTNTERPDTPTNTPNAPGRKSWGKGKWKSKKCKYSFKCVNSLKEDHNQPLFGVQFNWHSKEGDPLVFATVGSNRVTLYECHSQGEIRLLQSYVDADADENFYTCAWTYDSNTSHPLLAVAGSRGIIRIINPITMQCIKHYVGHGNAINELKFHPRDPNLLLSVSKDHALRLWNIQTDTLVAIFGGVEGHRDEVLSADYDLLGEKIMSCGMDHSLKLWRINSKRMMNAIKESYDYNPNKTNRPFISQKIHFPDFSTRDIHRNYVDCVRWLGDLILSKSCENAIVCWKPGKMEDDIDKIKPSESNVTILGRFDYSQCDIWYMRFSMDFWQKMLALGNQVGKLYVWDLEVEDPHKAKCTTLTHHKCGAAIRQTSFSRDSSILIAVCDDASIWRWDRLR
- Sequence (Q15022 whole entry partner): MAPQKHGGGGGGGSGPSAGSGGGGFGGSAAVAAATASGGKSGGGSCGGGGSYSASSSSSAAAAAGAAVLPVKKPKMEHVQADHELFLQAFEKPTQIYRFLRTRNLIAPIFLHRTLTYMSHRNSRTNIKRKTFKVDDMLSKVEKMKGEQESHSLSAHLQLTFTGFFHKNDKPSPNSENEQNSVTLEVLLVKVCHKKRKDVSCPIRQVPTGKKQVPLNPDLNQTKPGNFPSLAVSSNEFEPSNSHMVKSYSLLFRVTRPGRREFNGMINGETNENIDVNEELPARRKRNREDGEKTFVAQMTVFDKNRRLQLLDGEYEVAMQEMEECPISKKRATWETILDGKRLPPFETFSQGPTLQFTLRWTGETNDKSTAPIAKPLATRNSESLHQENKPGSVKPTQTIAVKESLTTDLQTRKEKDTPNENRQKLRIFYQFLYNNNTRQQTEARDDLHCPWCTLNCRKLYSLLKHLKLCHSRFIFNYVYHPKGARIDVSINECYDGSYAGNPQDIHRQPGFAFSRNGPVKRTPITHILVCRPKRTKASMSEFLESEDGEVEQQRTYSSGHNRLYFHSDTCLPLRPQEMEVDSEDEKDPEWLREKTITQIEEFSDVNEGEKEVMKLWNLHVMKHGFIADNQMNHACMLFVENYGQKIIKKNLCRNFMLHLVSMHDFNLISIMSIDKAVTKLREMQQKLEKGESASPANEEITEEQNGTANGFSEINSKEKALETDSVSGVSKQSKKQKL
- TEST DESCRIPTION: EZH2 assay: rPRC2 with biotinylated oligonucleosome substrates and 3H SAM, FlashPlate scintillation counting, IC50
- Assay type: biochemical
- MEASUREMENT CONDITIONS: rPRC2, biotinylated oligonucleosome substrates, 3H SAM; read-out: EZH2 IC50
ATTRIBUTE MEASURED: IC50

COMPOUND: Cc1cc(Oc2ccccc2)ccc1C(=O)NC1CC(C)(C)NC(C)(C)C1
ASSAYED TARGET: EZH2 (Homo sapiens, UniProt Q15910)
RESULT VALUE: > 80 µM

COMPOUND: CC1(C)CC(NC(=O)c2ccc(Oc3cccc(OCC(N)=O)c3C#N)c(Cl)c2)CC(C)(C)N1
ASSAYED TARGET: EZH2 (Homo sapiens, UniProt Q15910)
RESULT VALUE: < 5 µM

COMPOUND: CC1(C)CC(NC(=O)c2ccc(Oc3ccccc3CN)cc2)CC(C)(C)N1
ASSAYED TARGET: EZH2 (Homo sapiens, UniProt Q15910)
RESULT VALUE: 20 to 80 µM

COMPOUND: CN(C)c1ccc(-c2cccc(Oc3ccc(C(=O)NC4CC(C)(C)NC(C)(C)C4)cc3Cl)c2C#N)cn1
ASSAYED TARGET: EZH2 (Homo sapiens, UniProt Q15910)
RESULT VALUE: < 5 µM

COMPOUND: CC1(C)CC(NC(=O)c2cnc(Oc3cccc(-c4cn[nH]c4)c3C#N)c(Cl)c2)CC(C)(C)N1
ASSAYED TARGET: EZH2 (Homo sapiens, UniProt Q15910)
RESULT VALUE: < 5 µM

Challenge: Which IC50 is reported for this compound? CC1(C)CC(NC(=O)c2ccc(Oc3cccc(-c4cn[nH]c4)c3C#N)c(C3CC3)c2)CC(C)(C)N1
Response given: < 5 µM

Challenge: Now consider CC1(C)CC(NC(=O)c2cccc(-c3ccccc3)c2)CC(C)(C)N1 and answer again.
Response given: > 80 µM

Challenge: Queued: CC1(C)CC(NC(=O)c2ccc(Oc3cccc(-c4ccnc(C#N)c4)c3C#N)c(Cl)c2)CC(C)(C)N1
Response given: < 5 µM

Challenge: Queued: CC1(C)CC(NC(=O)c2ccc(Oc3cccc(CN4CCCC4)c3)cc2)CC(C)(C)N1
Response given: 5 to 20 µM

Challenge: How about this compound: CC1(C)CC(NC(=O)c2ccc(Oc3ccccc3-c3cccnc3N)c(Cl)c2)CC(C)(C)N1
Response given: 5 to 20 µM

Challenge: Thanks! And Cc1ncccc1-c1cccc(Oc2ccc(C(=O)NC3CC(C)(C)NC(C)(C)C3)cc2Cl)c1C#N ?
Response given: < 5 µM

Challenge: Thanks! And CC1(C)CC(C(=O)Nc2ccc(Oc3cccc(-c4cn[nH]c4)c3C#N)c(Cl)c2)CC(C)(C)N1 ?
Response given: 5 to 20 µM

Challenge: Try this compound too: CC1(C)CC(NC(=O)c2ccc(COc3ccccc3)c(Br)c2)CC(C)(C)N1
Response given: 20 to 80 µM

Hey, just so you know, these numbers are from patent US20130310379A1.
